Item-by-item account of inhibition
targetOrSystem: Prostaglandin G/H synthase 2 (Homo sapiens) (UniProt P35354)
Sequence (P35354 whole entry): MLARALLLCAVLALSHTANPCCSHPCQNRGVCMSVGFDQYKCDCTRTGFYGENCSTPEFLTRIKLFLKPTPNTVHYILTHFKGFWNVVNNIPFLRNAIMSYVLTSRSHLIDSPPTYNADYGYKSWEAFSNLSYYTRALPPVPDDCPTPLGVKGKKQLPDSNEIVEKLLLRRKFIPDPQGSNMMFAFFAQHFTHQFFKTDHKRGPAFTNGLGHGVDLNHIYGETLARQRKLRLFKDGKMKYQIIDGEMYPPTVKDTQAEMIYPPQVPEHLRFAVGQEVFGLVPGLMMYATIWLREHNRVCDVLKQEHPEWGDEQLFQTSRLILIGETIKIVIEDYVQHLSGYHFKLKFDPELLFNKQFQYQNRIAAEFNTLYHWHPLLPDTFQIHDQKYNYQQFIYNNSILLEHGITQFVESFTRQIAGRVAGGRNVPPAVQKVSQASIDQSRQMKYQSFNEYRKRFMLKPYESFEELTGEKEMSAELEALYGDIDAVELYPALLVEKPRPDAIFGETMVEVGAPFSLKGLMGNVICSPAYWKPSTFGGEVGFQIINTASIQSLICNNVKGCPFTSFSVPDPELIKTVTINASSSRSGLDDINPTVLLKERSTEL
protocolSummary: Inhibition of COX2 in human whole blood at 10 uM
readoutName: inhibition

molecule	readoutName	result
Cc1nc(C2=NN(c3ccccc3)C(c3ccc(Cl)cc3)C2)no1 (racemic)	inhibition	4%
FC(F)(F)c1nc(C2=NN(c3ccccc3)C(c3ccc(Cl)cc3)C2)no1 (racemic)	inhibition	6%
NS(=O)(=O)c1ccc(N2N=C(c3nn[nH]n3)CC2c2ccc(Cl)cc2)cc1 (racemic)	inhibition	7%
Cn1nnc(C2=NN(c3ccc(S(N)(=O)=O)cc3)C(c3ccc(Cl)cc3)C2)n1 (racemic)	inhibition	11%

* * *

Test system: Rattus norvegicus
protocolSummary: Ulcerogenicity in fasted Wistar rat assessed as ulceration at 300 mg/kg, po administered every 2 hrs
Type: toxicity, organism-based
Parameters: dose 300 mg/kg, route oral
conditionContext: in vivo

molecule	Activity
O=C([O-])Cc1ccccc1Nc1c(Cl)cccc1Cl.[Na+] [DICLOFENAC SODIUM]	Toxic
NS(=O)(=O)c1ccc(N2N=C(c3nn[nH]n3)CC2c2ccc(Cl)cc2)cc1 (racemic)	Non-toxic
Cn1nnc(C2=NN(c3ccc(S(N)(=O)=O)cc3)C(c3ccc(Cl)cc3)C2)n1 (racemic)	Non-toxic
FC(F)(F)c1nc(C2=NN(c3ccccc3)C(c3ccc(Cl)cc3)C2)no1 (racemic)	Non-toxic
Cc1nc(C2=NN(c3ccccc3)C(c3ccc(Cl)cc3)C2)no1 (racemic)	Non-toxic

The values you see were collected from ChEMBL document CHEMBL1909631.
